test: In vivo pharmacokinetic interaction study in rats (plasma); parameters: species or system rat; details: male, Sprague-Dawley, rat, urine and plasma, po, 2 mg/kg, renal clearance, oral amifampridine 2 mg/kg, control group
The molecules listed here are annotated with their CL renal.

structure	CL renal (mL/min)
Nc1ccncc1N	4.89
CC(=O)Nc1cnccc1N	2.94

----------
Parameter half-life: see the listing below.
Assay: In vivo pharmacokinetic interaction study in rats (plasma)
Parameters: species or system rat
Conditions: male, Sprague-Dawley, rat, plasma, po, 2 mg/kg, oral amifampridine 2 mg/kg, acetaminophen-treated group (100 mg/kg ip)
Method: Male Sprague Dawley (SD) rats (7–8 weeks old, 260–330 g) were purchased from Orient Bio, Inc. (Seongnam, Korea). […] The rats were anesthetized with a mixture of Rompun and Zoletil by intramuscular injection and received an intraperitoneal injection of vehicle (40:60 PEG400:normal saline; n = 8) or 100 mg/kg acetaminophen (n = 8). […] The supernatants were transferred to LC vials for quantification. […]

structure	half-life (min)
CC(=O)Nc1cnccc1N	143
Nc1ccncc1N	81.3
